target under test: T1, hFc-hROR1 (extracellular domain of human ROR1 fused to the Fc domain of human IgG1) (human, UniProt Q01973 30-406)
T1 construct: extracellular domain; also called hFc-ROR1; not shown: Fc domain of human IgG1
T1 sequence (Q01973 30-406): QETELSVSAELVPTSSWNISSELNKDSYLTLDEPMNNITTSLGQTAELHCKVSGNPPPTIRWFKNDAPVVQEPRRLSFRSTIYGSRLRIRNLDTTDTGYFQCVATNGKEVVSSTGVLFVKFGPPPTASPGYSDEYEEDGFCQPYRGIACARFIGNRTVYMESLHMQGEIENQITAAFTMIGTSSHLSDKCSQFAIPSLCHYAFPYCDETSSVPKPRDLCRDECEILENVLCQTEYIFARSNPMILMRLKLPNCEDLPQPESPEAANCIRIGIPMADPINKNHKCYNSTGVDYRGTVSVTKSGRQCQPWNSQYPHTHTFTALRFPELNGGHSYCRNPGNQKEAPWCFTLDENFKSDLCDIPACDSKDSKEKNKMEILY
assay details: SPR (Biacore X100); hFc-hROR1 captured by anti-human Fcγ antibody on CM5; Fab as analyte; 1:1 Langmuir fit
measured property: koff (s⁻¹)
Answer with a number only, understood to be in s⁻¹.

Inquiry: Fill blank: measured koff of the binder ERR1-403 chimeric rabbit/human Fab (Fab, V domains shown, Chimeric rabbit/human Fab with His tag, expressed in E. coli (pET11a); lambda light chain) VH: QEQLKESGRGLVQPGGSLKLSCKASGFDFSGWYMTWVRQAPGKGLEWIGTIGTTKGRTYYASWVNGRFTISSNAQNTVDLQMNSLTAADRATYFCVRGSDYFDLWGPGTLVTISS VL: SYELTQLPSVSVSLGQTARITCGGNSIGSKAVNWYQQKPGLAPGLLIYDDDERPSGVPARFSGSNSGDTATLTISGAQAGDEADYYCQLWDSSAGAYVFGGGTQLTVTG is ____.
Reply text: 0.00128
